assay: soluble on expression in E. coli; label from the status in PepcDB or PDB records
EXPERIMENTAL_ENDPOINT: soluble on expression in E. coli

MHHHHHHSSGVDLGTENLYFQSMGNKYIQQTKPLTLERTINLYPLTNYTFGTKEPLYEKDSSVAARFQRMREEFDKIGMRRTVEGVLIVHEHRLPHVLLLQLGTTFFKLPGGELNPGEDEVEGLKRLMTEILGRQDGVLQDWVIDDCIGNWWRPNFEPPQYPYIPAHITKPKEHKKLFLVQLQEKALFAVPKNYKLVAAPLFELYDNAPGYGPIISSLPQLLSRFNFIYN : soluble
MAHHHHHHMFRRLSVCVPFATTARFYTPSEELKKLYASDFERAQFPANIVPSDSVTFAKFLYKAVEPKGSFDTILKDFQTIAAAIPKLPVFWQRTVVVSEVSEFKSLSAPTTFTLEWMQSNGMLDLLPDVAEVYETYVNAKMKRVTAKIYVAAGKEQDRALVDKAKKVAEQVVKDNQQFAGYTLVPKVLVDRSIVEGFAVDVQGTYVNEAVGRKKETQASGEVDYTTIPPPRLSKTTWEDNIETEVLRKYLDSLSLYDAEELKSGV : soluble

----------
test: soluble on expression in E. coli; label from the status in PepcDB or PDB records
EXPERIMENTAL_ENDPOINT: soluble on expression in E. coli

MGHHHHHHSHMKFRAKIVDGACLNHFTRISNMIAKLAKTCTLRISPDKLNFILCDKLANGGVSMWCELEQENFFNEFQMEGVSAENNEIYLELTSENLSRALKTAQNARALKIKLTNKHFPCLTVSVELLSMSSSSRIVTHDIPIKVIPRKLWKDLQEPVVP : not soluble
MVKLRIGYPEDPDYQERLEEFEARIARGEKIEPGDWMPAEYRRQLIRMISQHAHSEWVGMLPEGAWITRAPSLRRKLILLAKVQDEAGHGQYLYHAAETLGITREEMVEALLSGKAKYSNIFNYPTLTWADVAIIGWLVDGMAIKNQTMLAQCSYGPYSRAMVRICAEETFHHKQGKEAVLLYAKGSPKQRRMVQDALNRWWWPTLMMAGPHDTDSPHTPLLLRWGIKTKTNDQIRQEFLNEHVPELLDAGLSIPDPDLRYDEKTGNWIHGPIPWDEFWKVIGGEGPMNRHRLQGRRRAHQEGRWVREAMEAYAKRRLAQAAD : soluble
EMIHHAKNQLIMCSPYFIPDESMLEAVTSACYRGVRVELLVSEQADQFVVDHAQSSYYQTLLEAGVHIYRYHAPAVLHSKFLIADPHGVAVSVMGSSNMDMRSFGLNYEVSLMTLQGQLTHLLYELAETYKENSTELTLEEWNQRGIVRRYVDNIMKLTSALQ : not soluble
MGSDKIHHHHHHMKIAQVCPRFYPHIGGVETHVYEIASRIAKKFDVEVLTTDPGGKLPKVEEIDGLTVRRFKSLAPSEAYYFSPELYDYLKKNSSDYDVVHAHNYHAFPALFAALTKGKNKLIFTPHYHGSGHSFFRNVLHKPYKIFGRKIFKRADAIVCVSNYEKNLVLKNFKVAEDRTYVIPNGINLDEFKDIEKIKRNKESWKKTILYVGRVEKYKGLDYVVKSLKHLPDNFTLEVVGKGSYKSKIVEMAKKLDVIDRIRFYQDLSRKELIDRYAKADVLVLLSKHEAYGIVVAEALAAKTPCIVANTSALSEWIDNKNVFGIDYPINVSELARLIERVSNVKAGDMKLLDWDDVNERLIRIYSAKI : not soluble
MSLTQVPAGQFTATKNLRPAAKPGKDVVLRVYSDFQCPYCQKLELETMPALLRALPDDVRVEFHQFPLEQIHPLARPAAEASECAAQQGRFWDYKDALFRDRSWLQNNPNETFLRLAGDLKLDPGKFKDCLALRGGKAGVDAGLAEAQQLGLNATPTVFVDGYRVGNPFDTAAVLQLIDVARATREGHHHHHH : soluble

Now examine the next entry.
### Prompt Give the reported value of soluble on expression in E. coli for this record: `MGSDKIHHHHHHMSTVSAQEAVSLREAAERRSQFARVPARSVSAPPRKKWFRSKQQLSGAADGMDGSSRAGSQEIVCDEFTKKLVAAITTWHDIHSSLLQLSIERSSNDSNEEHENVSVSSESSWSSASDSESDEDSATGRDSTNNHLSASAARFSISNPDLTNCQIKQMFPEMADHWR`
### Response not soluble

----------
experiment: soluble on expression in E. coli; label from the status in PepcDB or PDB records
EXPERIMENTAL_ENDPOINT: soluble on expression in E. coli

Worked cases, answers included:
MVSSQPKYDLIREVGRGSYGLVYEALVRRTGQRVAVKKIRCQAPENVELALREFWALSSIQSQHPNVIHLEECVLQRDGMVQRMLHGSSSVLYLP : not soluble
RVQLLESGAELMKPGASVQISCKATGYTFSEYWIEWVKERPGHGLEWIGEILPGSGRTNYREKFKGKATFTADTSSNTAYMQLSSLTSEDSAVYYCTRGYSSMDYWGQGTSVTVSAAKTTPPSVYPLAPGCGDTTGSSVTLGCLVKGYFPESVTVTWNSGSLSSSVHTFPALLQSGLYTMSSSVTVPSSTWPSQTVTCSVAHPASSTTVDKKLEPSGPI : soluble
MPKAKAKTKNTEIISPHHYVYPNTTTLKNKYGIKNLNAFLEKCSHDTAKAMINLREESLPEYFDTAYLCHIHQQLFKNTFEWAGYLRHIPFTFADGTTAAMPEMKRTGWKNAFAIGDEIQEGLQRLDQTLAEKNNLQGLTREEFNSEAIELFNSLNQLHPFREGNGRTQRLFFENLAKAAGHQLNFSLITKERMMVASVAVAENGDLEPMQHLFEDISNPEKIRLLKEFMHTMKNTGRNVNDRPVMVAKEGETYTGTYRGAGLEGFALNVKGAYIIGNIDHLPPEQLKILKPGDKITFTAPK : soluble
MGSDKIHHHHHHMKSNGHATRLRTTPSLGGQSHDTRARMIEAAIEVFGSVGYDGATTRQLAERAGVNQAAIPYHFGGKRELYVAAAQAIADYMRSRIEPLIDELRTASVDPVGHIDAVVMRFFQFIAGDEEPEAWTVFFVRCERDADDAFRIIYYQSVARFQAALIAEVAAATGRSPDDEDLKVRVAVVLGAISNFRTLRNVMLSSLGWDTFDAERKLTVETAVRRLALAELLGIHADAPSDVHPPLGSASGAQPSPTARP : not soluble
MKRLRCIREIERQRGTRVIAMIHRQEALTFLGIPIYKFITIEDSEEILRAIRLTPEDMPIDLIIHTPGGLALASEQIALALKEHKAKTTVIIPHYAMSGGSLIALAADEIIMDKNAVMGPVDPQIGQYPAASILEAYYRKGEKVSDETLILVDISKKAIKQMEEFVYELLKDKYGDEKAKEIAKKLTSGTW : not soluble
MSLGLSKTIWTNPAEYLRALSPEAPVLFFSPSTLQATARRFIDGFPGMVTYAVKSNPEEVVIENLAAAGIRGYDVASPHEIRMIRRIAPDAALHYNNPVRSRSEIGVGVEMGVKSWSVDSASELAKLIELVPAEGCEIAVRFKLAVSGAAYNFGAKFGATVELAVELLRRVAEAGFIPSMTFHPGTQCTDPAAWETYIRTAAEIARDAGVTIARLNVGGGFPSHRLNGVEPELEAIFHLIDRVTDEAFGADRPLLVCEPGRGICADAFTLAARIKAVRDDAHVFLNDGVYGSLTELPMIGVIDRVAVLTPEGRRRDGETRDRIIFGPTCDSVDRLPGELPLAADVEEGDFLVFQGMGAYSAATNTRFNGFGELSMATVLSLKEGHHHHHH : soluble
MGSDKIHHHHHHKIEELTAVPLQIGYEKTLHLIFPTEVKYYSIGGDYVIGEKVVNCPGIIRLKAAEENFPGETTLSVVTADTKFYSYSISYNAHPAQSYVRIGGEAPTPHTLPVGKEKQLFLIFPAGITYVDYGSTNVEVDKAEGVDNILAVKAVQPYKEDTNISVVLEGGKFYTFDLRYVPAPERFSFVIDKEDTQRVAILDEKERSYGQKERIREAVAKRTPLDLGLRDKNSGMEFEVGNIFIDGDVLLLRMTLTNRTQIGYTTDFMRFYIQDAKIRKKTAVQQLEQNILFTFDYPEEIPAHESRTFTVAMNKFTIPDKKRLIIEIQERNGGRHFLYKLKNKSLLTAEEVFRSRKQQETEDEADKILRRIAR : not soluble
MPLEASELKPTAGPLEASELKPTAGPLEASELKPTAGPLEASELKPTAGPLEASELKPTAGPLEASELKPTAGPLEASELKPTAGMKLKGRGIVKGVAEGELVVSRKPLSFLGGVDPNTGIITDPESDIQGEKITGKILAFPRGKGSTVGSYVIYALAKKGTGPKAIIVEEAEAIVAVGAIIAGIPLVTGIDISKLKSGMKVRVDGERGEVEIIAQGDLLEHHHHHH : not soluble
MGSSHHHHHHSSGLVPRGSHMEAPAAVVTGAAKRIGRAIAVKLHQTGYRVVIHYHNSAEAAVSLADELNKERSNTAVVCQADLTNSNVLPASCEEIINSCFRAFGRCDVLVNNASAFYPTPLVQGDHEDNSNGKTVETQVAELIGTNAIAPFLLTMSFAQRQKGTNPNCTSSNLSIVNLCDAMVDQPCMAFSLYNMGKHALVGLTQSAALELAPYGIRVNGVAPGVSLLPVAMGEEEKDKWRRKVPLGRREASAEQIADAVIFLVSGSAQYITGSIIKVDGGLSLVHA : soluble
MFQIQETIVSPDLFDKYFVCDYATCQGICCVEGESGAPLEAGEADLLRKYLDAVRDMLSSEALEVIDKQGVSYLDVEGDEVTSIVNGRDCVFTTYDEKGNCLCAFERAYRLGKIDFPKPLSCHLYPVRLTRYSSFTAVNYHRWEICRCAEALGRQMGTPLYRFLKEPLIRAFGKEWYKEMEEIAALLEQNPLKR : not soluble

### Prompt Give the reported value of soluble on expression in E. coli for this record: `MGHHHHHHSHGGVGKKEQLSVKKLRVVLFALCCNTEQAAEHFRNPQRRIRRWLRRFQASQGENLEGKYLSFEAEEKLAEWVLTQREQQLPVNEETLFQKATKIGRSLEGGFKISYEWAVRFMLRH`
### Response not soluble

### Prompt Give the reported value of soluble on expression in E. coli for this record: `QVQLVESGGGSVQAGGSLRLSCAASGFTYSRKYMGWFRQAPGKEREGVAAIFIDNGNTIYADSVQGRFTISQDNAKNTVYLQMNSLKPEDTAMYYCAASSRWMDYSALTAKAYNSWGQGTQVTVSSRGRHHHHHH`
### Response soluble
